Tested on: HL-60
experiment: cell viability (% survival relative to DMSO control); higher = less cytotoxic
condition description: 1 µM; 72 h; co-treatment: GSK2194069 100 nM
Counter-ions that a name gives are not always drawn.
Below, each entry is listed alongside its reported cell viability.

compound: O=c1c(-c2ccc(O)cc2)coc2cc(O[C@@H]3O[C@H](CO)[C@@H](O)[C@H](O)[C@H]3O)ccc12
target of assay: HL-60
unit tag: %
cell viability: 98.7

compound: C=CC(=O)c1ccc(O)cc1
target of assay: HL-60
unit tag: %
cell viability: 105

compound: CCOC(=O)c1sc(NC(=O)c2ccco2)c(SC#N)c1C
target of assay: HL-60
unit tag: %
cell viability: 98.2

compound: CCN(CC)C(=S)SSC(=S)N(CC)CC
target of assay: HL-60
unit tag: %
cell viability: 93.1

compound: CCN(CCO)CCCC(C)Nc1ccnc2cc(Cl)ccc12 (stereo not given) [Hydroxychloroquine sulfate]
target of assay: HL-60
unit tag: %
cell viability: 99.5

compound: Cc1cc(C(=O)NNCc2ccccc2)no1
target of assay: HL-60
unit tag: %
cell viability: 102

compound: Cc1nc(-c2ccccc2)sc1C(=O)Nc1ccc(S(N)(=O)=O)cc1
target of assay: HL-60
unit tag: %
cell viability: 91.2

compound: CCCCCN(C)CCC(O)(P(=O)(O)O)P(=O)(O)O [Ibandronate]
target of assay: HL-60
unit tag: %
cell viability: 94.4

compound: CC(C)(C)c1ccc(S(=O)(=O)NCc2ccc(C(=O)Nc3cccnc3)cc2)cc1
target of assay: HL-60
unit tag: %
cell viability: 6.72

compound: CCCCCOC(=O)Nc1nc(=O)n([C@@H]2O[C@H](C)[C@@H](O)[C@H]2O)cc1F
target of assay: HL-60
unit tag: %
cell viability: 102

compound: COC(=O)c1cc2c(C(F)(F)F)cc(-c3ccccc3)cc2n1O
target of assay: HL-60
unit tag: %
cell viability: 107

compound: CN(Cc1cnc2nc(N)nc(N)c2n1)c1ccc(C(=O)N[C@@H](CCC(=O)O)C(=O)O)cc1 [Methotrexate]
target of assay: HL-60
unit tag: %
cell viability: 27.9

compound: O=C(/C=C/c1ccc(O)c(O)c1)OCCc1ccccc1
target of assay: HL-60
unit tag: %
cell viability: 97.1

compound: CC(C)CC(=O)N[C@H](C(=O)N[C@H](C(=O)N[C@@H](CC(C)C)[C@@H](O)CC(=O)N[C@@H](C)C(=O)N[C@@H](CC(C)C)[C@@H](O)CC(=O)O)C(C)C)C(C)C
target of assay: HL-60
unit tag: %
cell viability: 103

compound: Cc1ccc(-c2cc(C(F)(F)F)nn2-c2ccc(S(N)(=O)=O)cc2)cc1
target of assay: HL-60
unit tag: %
cell viability: 103

----------
System: ML-2
experiment: cell viability (% survival relative to DMSO control, bortezomib = 0%); higher = less cytotoxic
condition description: 10 nM; 72 h

compound: O=c1c(-c2ccc(O)cc2)coc2cc(O[C@@H]3O[C@H](CO)[C@@H](O)[C@H](O)[C@H]3O)ccc12 [Daidzin]
target of assay: ML-2
cell viability / %: 90.1

compound: CC/C=C\C[C@H]1C(=O)CC[C@@H]1CC(=O)OC [Methyl jasmonate]
target of assay: ML-2
cell viability / %: 110

compound: O=c1cc(N2CCOCC2)oc2c(-c3ccccc3)cccc12
target of assay: ML-2
cell viability / %: 103

compound: CCN(CC)C(=S)SSC(=S)N(CC)CC [Disulfiram]
target of assay: ML-2
cell viability / %: 106
